Values compiled from ChEMBL document CHEMBL1156565.

assay: Oral bioavailability in Sprague-Dawley rat; assay type: ADME, organism-based; settings: in vivo
assayMetric: bioavailability

Would you kindly share the measured bioavailability for `Cc1cc(C[C@@H](NC(=O)N2CCC(N3Cc4cccc(F)c4NC3=O)CC2)C(=O)N2CCC(N3CCCCC3)CC2)cc2cn[nH]c12` ?
≤ 0.3%

###

experiment: Displacement of [I125]CGRP from marmoset CGRP receptor; design: species or system Callithrix jacchus
assayMetric: pKi
Reminder that pKi means the negative base-10 logarithm of the concentration expressed in mol/L.

Would you kindly share the measured pKi for `Cc1cc(C[C@@H](NC(=O)N2CCC(N3Cc4cccc(F)c4NC3=O)CC2)C(=O)N2CCC(N3CCCCC3)CC2)cc2cn[nH]c12` ?
10.11

###

experiment: Tmax in New Zealand white rabbit at 0.5 mg/kg, iv; format: ADME, organism-based, Oryctolagus cuniculus; parameters: dose 0.5 mg/kg, route intravenous; details: in vivo
assayMetric: Tmax (min)
Kindly provide the numeric value in min only, without the unit symbol.

Would you kindly share the measured Tmax for `Cc1cc(C[C@@H](NC(=O)N2CCC(N3Cc4cccc(F)c4NC3=O)CC2)C(=O)N2CCC(N3CCCCC3)CC2)cc2cn[nH]c12` ?
1.98

###

experiment: Cmax in New Zealand white rabbit at 1.0 mg/kg, intranasally; settings: in vivo, inhaled or intranasal
assayMetric: Cmax (µM)
Kindly provide the numeric value in µM only, without the unit symbol.

Would you kindly share the measured Cmax for `Cc1cc(C[C@@H](NC(=O)N2CCC(N3Cc4cccc(F)c4NC3=O)CC2)C(=O)N2CCC(N3CCCCC3)CC2)cc2cn[nH]c12` ?
1.2

###

molecular target: Cytochrome P450 2C19 (Homo sapiens, UniProt P33261); experiment: Inhibition of human recombinant CYP2C19 expressed in insect microsomes
Sequence (P33261 whole entry): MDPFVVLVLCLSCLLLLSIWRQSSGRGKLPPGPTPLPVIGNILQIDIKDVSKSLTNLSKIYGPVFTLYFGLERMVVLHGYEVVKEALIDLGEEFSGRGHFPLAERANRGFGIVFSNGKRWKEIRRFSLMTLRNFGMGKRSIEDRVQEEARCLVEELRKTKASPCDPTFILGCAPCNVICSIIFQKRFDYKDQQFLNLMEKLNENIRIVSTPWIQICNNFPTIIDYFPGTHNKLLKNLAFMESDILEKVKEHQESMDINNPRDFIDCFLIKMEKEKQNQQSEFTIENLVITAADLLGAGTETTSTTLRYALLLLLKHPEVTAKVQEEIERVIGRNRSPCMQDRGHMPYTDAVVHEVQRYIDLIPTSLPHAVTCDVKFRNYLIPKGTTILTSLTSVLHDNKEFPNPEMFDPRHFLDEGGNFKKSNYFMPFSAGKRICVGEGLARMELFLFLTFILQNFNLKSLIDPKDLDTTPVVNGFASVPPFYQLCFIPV
pIC50: −log10 of the molar value.
assayMetric: pIC50

Would you kindly share the measured pIC50 for `Cc1cc(C[C@@H](NC(=O)N2CCC(N3Cc4cccc(F)c4NC3=O)CC2)C(=O)N2CCC(N3CCCCC3)CC2)cc2cn[nH]c12` ?
< 4.40

###

biological target: Calcitonin gene-related peptide type 1 receptor (Homo sapiens, UniProt O60894+Q16602); test: Displacement of [I125]CGRP from human CGRP receptor in SK-N-MC cells
Sequence (Q16602 whole entry, one chain of several): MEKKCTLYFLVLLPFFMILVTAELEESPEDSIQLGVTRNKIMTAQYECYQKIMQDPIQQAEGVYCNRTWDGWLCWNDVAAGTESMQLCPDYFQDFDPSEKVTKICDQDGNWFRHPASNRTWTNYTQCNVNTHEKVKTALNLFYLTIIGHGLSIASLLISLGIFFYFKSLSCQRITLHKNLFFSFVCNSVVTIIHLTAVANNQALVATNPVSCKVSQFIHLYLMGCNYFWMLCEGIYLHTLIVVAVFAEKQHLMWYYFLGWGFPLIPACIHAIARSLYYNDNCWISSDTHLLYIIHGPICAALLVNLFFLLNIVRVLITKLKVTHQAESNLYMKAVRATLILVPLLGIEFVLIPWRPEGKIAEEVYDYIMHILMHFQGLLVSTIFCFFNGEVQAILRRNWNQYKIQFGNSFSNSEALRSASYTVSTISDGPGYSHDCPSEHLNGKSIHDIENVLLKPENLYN
Ki values by entry
Kindly provide the numeric value in nM only, without the unit symbol.

INSERT INTO assay_data (compoundstructurestring, assaymetric, observedmeasurement) VALUES
  ('O=C(N[C@H](Cc1csc2ccccc12)C(=O)N1CCC(N2CCCCC2)CC1)N1CCC(N2Cc3ccccc3NC2=O)CC1', 'Ki', 0.55);

Would you kindly share the measured Ki for `Cc1cc(C[C@@H](NC(=O)N2CCC(N3Cc4cccc(F)c4NC3=O)CC2)C(=O)N2CCC(N3CCCCC3)CC2)cc2cn[nH]c12` ?
0.0128

Would you kindly share the measured Ki for `Cc1cc(C[C@@H](NC(=O)N2CCC(N3Cc4ccccc4NC3=O)CC2)C(=O)N2CCC(N3CCCCC3)CC2)cc2cn[nH]c12` ?
0.01

###

experiment: Fraction unbound in human serum at 10 uM; type: ADME, cell-free
assayMetric: fraction unbound at 10 µM
Would you mind answering with just the numeric figure?

Would you kindly share the measured fraction unbound at 10 µM for `Cc1cc(C[C@@H](NC(=O)N2CCC(N3Cc4cccc(F)c4NC3=O)CC2)C(=O)N2CCC(N3CCCCC3)CC2)cc2cn[nH]c12` ?
0.35

###

system: Oryctolagus cuniculus; test: Cmax in New Zealand white rabbit at 0.5 mg/kg, iv; format: ADME, organism-based; set-up: dose 0.5 mg/kg, route intravenous; conditions: in vivo
assayMetric: Cmax (µM)
Kindly provide the numeric value in µM only, without the unit symbol.

Would you kindly share the measured Cmax for `Cc1cc(C[C@@H](NC(=O)N2CCC(N3Cc4cccc(F)c4NC3=O)CC2)C(=O)N2CCC(N3CCCCC3)CC2)cc2cn[nH]c12` ?
8.2

###

test: Half life in New Zealand white rabbit at 0.5 mg/kg, iv; type: ADME, organism-based, Oryctolagus cuniculus; parameters: dose 0.5 mg/kg, route intravenous; details: in vivo
assayMetric: half-life (min)
Kindly provide the numeric value in min only, without the unit symbol.

Would you kindly share the measured half-life for `Cc1cc(C[C@@H](NC(=O)N2CCC(N3Cc4cccc(F)c4NC3=O)CC2)C(=O)N2CCC(N3CCCCC3)CC2)cc2cn[nH]c12` ?
660

###

experiment: Bioavailability in sc dosed Sprague-Dawley rat in presence of PBS vehicle; format: ADME, organism-based; settings: in vivo
assayMetric: bioavailability (%)
Kindly provide the numeric value in % only, without the unit symbol.

Would you kindly share the measured bioavailability for `Cc1cc(C[C@@H](NC(=O)N2CCC(N3Cc4cccc(F)c4NC3=O)CC2)C(=O)N2CCC(N3CCCCC3)CC2)cc2cn[nH]c12` ?
43

###

target: Cytochrome P450 2C9 (Homo sapiens); assay: Inhibition of human recombinant CYP2C9 expressed in insect microsomes
Sequence (P11712 whole entry): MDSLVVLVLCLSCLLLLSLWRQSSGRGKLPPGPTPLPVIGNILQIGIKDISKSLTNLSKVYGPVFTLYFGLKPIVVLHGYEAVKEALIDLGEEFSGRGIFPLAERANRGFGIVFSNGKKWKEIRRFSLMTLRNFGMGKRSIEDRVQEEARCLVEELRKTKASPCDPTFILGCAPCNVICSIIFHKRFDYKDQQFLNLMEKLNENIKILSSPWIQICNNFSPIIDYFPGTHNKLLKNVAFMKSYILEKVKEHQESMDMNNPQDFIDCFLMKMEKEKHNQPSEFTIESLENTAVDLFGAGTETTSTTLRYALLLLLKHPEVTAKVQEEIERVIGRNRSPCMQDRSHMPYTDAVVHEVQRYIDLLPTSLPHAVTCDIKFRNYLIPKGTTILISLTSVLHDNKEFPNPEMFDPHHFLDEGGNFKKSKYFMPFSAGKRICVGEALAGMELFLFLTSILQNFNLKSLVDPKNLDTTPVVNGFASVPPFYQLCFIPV
pIC50: −log10 of the molar value.
assayMetric: pIC50

Would you kindly share the measured pIC50 for `Cc1cc(C[C@@H](NC(=O)N2CCC(N3Cc4cccc(F)c4NC3=O)CC2)C(=O)N2CCC(N3CCCCC3)CC2)cc2cn[nH]c12` ?
< 4.40

###

target: Calcitonin gene-related peptide type 1 receptor (Rattus norvegicus, UniProt Q63118+Q9JJ74); experiment: Displacement of [I125]CGRP from rat CGRP receptor
Sequence (Q63118 whole entry, one chain of several): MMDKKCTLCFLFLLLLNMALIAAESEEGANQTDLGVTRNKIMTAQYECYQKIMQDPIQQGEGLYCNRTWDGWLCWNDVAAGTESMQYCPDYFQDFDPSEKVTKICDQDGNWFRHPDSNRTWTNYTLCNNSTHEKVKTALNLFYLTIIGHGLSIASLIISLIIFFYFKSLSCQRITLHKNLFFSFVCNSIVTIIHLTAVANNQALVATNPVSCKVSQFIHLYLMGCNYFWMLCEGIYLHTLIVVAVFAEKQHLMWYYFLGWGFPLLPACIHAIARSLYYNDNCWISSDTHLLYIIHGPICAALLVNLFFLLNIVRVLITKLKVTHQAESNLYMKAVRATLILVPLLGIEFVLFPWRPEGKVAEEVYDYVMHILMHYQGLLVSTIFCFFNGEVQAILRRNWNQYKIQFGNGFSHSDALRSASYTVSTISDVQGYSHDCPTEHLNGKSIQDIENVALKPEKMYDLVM
assayMetric: Ki

Would you kindly share the measured Ki for `Cc1cc(C[C@@H](NC(=O)N2CCC(N3Cc4cccc(F)c4NC3=O)CC2)C(=O)N2CCC(N3CCCCC3)CC2)cc2cn[nH]c12` ?
> 1000 nM

###

assay: Aqueous solubility of compound at pH 5; type: physicochemical
assayMetric: solubility (mg/mL)
Kindly provide the numeric value in mg/mL only, without the unit symbol.

Would you kindly share the measured solubility for `Cc1cc(C[C@@H](NC(=O)N2CCC(N3Cc4ccccc4NC3=O)CC2)C(=O)N2CCC(N3CCCCC3)CC2)cc2cn[nH]c12` ?
15

###

experiment: Clearance in New Zealand white rabbit at 0.5 mg/kg, iv; type: ADME, organism-based, Oryctolagus cuniculus; parameters: dose 0.5 mg/kg, route intravenous; settings: in vivo
assayMetric: clearance (mL/min/kg)
Kindly provide the numeric value in mL/min/kg only, without the unit symbol.

Would you kindly share the measured clearance for `Cc1cc(C[C@@H](NC(=O)N2CCC(N3Cc4cccc(F)c4NC3=O)CC2)C(=O)N2CCC(N3CCCCC3)CC2)cc2cn[nH]c12` ?
13

###

test: Oral bioavailability in cynomolgus monkey; type: ADME, organism-based, Macaca fascicularis; conditions: in vivo
assayMetric: bioavailability

Would you kindly share the measured bioavailability for `Cc1cc(C[C@@H](NC(=O)N2CCC(N3Cc4cccc(F)c4NC3=O)CC2)C(=O)N2CCC(N3CCCCC3)CC2)cc2cn[nH]c12` ?
≤ 0.3%

###

assay: Volume of distribution at steady state in New Zealand white rabbit at 0.5 mg/kg, iv; assay type: ADME, organism-based, Oryctolagus cuniculus; design: dose 0.5 mg/kg, route intravenous; conditions: in vivo, read-out: Vdss
assayMetric: Vd (L/kg)
Kindly provide the numeric value in L/kg only, without the unit symbol.

Would you kindly share the measured Vd for `Cc1cc(C[C@@H](NC(=O)N2CCC(N3Cc4cccc(F)c4NC3=O)CC2)C(=O)N2CCC(N3CCCCC3)CC2)cc2cn[nH]c12` ?
2.7

###

experiment: Bioavailability in New Zealand white rabbit at 0.3 mg/kg, intranasally; assay type: ADME, organism-based, Oryctolagus cuniculus; conditions: in vivo, inhaled or intranasal
assayMetric: bioavailability (%)
Kindly provide the numeric value in % only, without the unit symbol.

Would you kindly share the measured bioavailability for `Cc1cc(C[C@@H](NC(=O)N2CCC(N3Cc4cccc(F)c4NC3=O)CC2)C(=O)N2CCC(N3CCCCC3)CC2)cc2cn[nH]c12` ?
55.2

###

test: Aqueous solubility of compound at pH 1 to 6.8; type: physicochemical
assayMetric: solubility

Would you kindly share the measured solubility for `Cc1cc(C[C@@H](NC(=O)N2CCC(N3Cc4cccc(F)c4NC3=O)CC2)C(=O)N2CCC(N3CCCCC3)CC2)cc2cn[nH]c12` ?
> 500 mg/mL
